- experimental_system: T1, Plasmodium falciparum histidine-rich protein II (HRP-II) (Plasmodium falciparum, UniProt P05227 22-332)
- T1 construct: Coating antigen of all ELISAs; also called HRP-II protein; MA-HRPII Ag protein
- T1 sequence (looked up): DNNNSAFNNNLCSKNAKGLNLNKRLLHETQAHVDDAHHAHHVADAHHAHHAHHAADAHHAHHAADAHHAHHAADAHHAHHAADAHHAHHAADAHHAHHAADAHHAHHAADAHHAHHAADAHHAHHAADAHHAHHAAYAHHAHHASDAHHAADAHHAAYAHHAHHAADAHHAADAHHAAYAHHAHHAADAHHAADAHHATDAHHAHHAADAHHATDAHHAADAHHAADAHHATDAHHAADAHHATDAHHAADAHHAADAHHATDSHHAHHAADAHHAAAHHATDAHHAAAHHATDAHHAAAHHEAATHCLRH
- test_protocol: indirect ELISA, four antigen coating concentrations;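 note: optical density read across an antibody dilution series at each antigen coating level, curves plotted on log scale, KD derived as reciprocal of the averaged constant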
measured_attribute: Kd (nM)
Numbers only, in nM.

Mutation 1-8 (antibody, mouse IgG2b, kappa, V domains shown, Mutation 1 as framework) VH: EVQLQQSGPEVVKPGASVKISCKASGYTITDYYMNWVKQSHGKGLEWIGDVNPIQGGTAYNQKFRDKATLTVDKSSNTAYMELRSLTSEDSALYYCTKGAEDYWGQGTTLTVSS VL: DVVLTQTPLSLSVTIGQPASISCKSSQSLLYSQGKIYLNWFQQRPGQSPKRLMYQLSKLDPGIPDRFSGSGSETDFTLKISRVEAEDLGVYYCLQATYTPQTFGGGTKLEIKR
0.198

Required: Kd, one value per binder below.
1. Mutation 1-26 (antibody, mouse IgG2b, kappa, V domains shown, Mutation 1 as framework) VH: EVQLQQSGPEVVKPGASVKISCKASGTTLTDYYMNWVKQSHGKGLEWIGDVNPIQGGTAYNQKFRDKATLTVDKSSNTAYMELRSLTSEDSALYYCTRGAEDYWGQGTTLTVSS VL: DVVLTQTPLSLSVTIGQPASISCKSSQSLLYSQGKIYLNWFQQRPGQSPKRLMYQLSKLDPGIPDRFSGSGSETDFTLKISRVEAEDLGVYYCLQGTYYPQTFGGGTKLEIKR
2. Mutation 1-27 (antibody, mouse IgG2b, kappa, V domains shown, Mutation 1 as framework) VH: EVQLQQSGPEVVKPGASVKISCKASGTTLTDYYMNWVKQSHGKGLEWIGDLNPINGGTAYQQKFRDKATLTVDKSSNTAYMELRSLTSEDSALYYCTKGAEDYWGQGTTLTVSS VL: DVVLTQTPLSLSVTIGQPASISCKSSQSIIYSNGKIYLNWFQQRPGQSPKRLMYQLSKLEPGIPDRFSGSGSETDFTLKISRVEAEDLGVYYCLQGTYSPQTFGGGTKLEIKR
3. Mutation 1-44 (antibody, mouse IgG2b, kappa, V domains shown, Mutation 1 as framework) VH: EVQLQQSGPEVVKPGASVKISCKASGYTITDYYMNWVKQSHGKGLEWIGDVNPINGGTAYQQKFRDKATLTVDKSSNTAYMELRSLTSEDSALYYCTRGAEDYWGQGTTLTVSS VL: DVVLTQTPLSLSVTIGQPASISCKSSQSILYSNGKIYLNWFQQRPGQSPKRLMYQLSKLDPGIPDRFSGSGSETDFTLKISRVEAEDLGVYYCLQATYSPQTFGGGTKLEIKR

A:
1. 0.211
2. 0.165
3. 0.105
